Assay: Long-term stability in spiked pooled human plasma
Conditions: validation standard MOV
Measure Name: Long-term stability, 6 weeks, 4°C, without daylight Accuracy [%] (%)
The answer is to be given in %; state only the numeric part.

- Compound: "CCN1CCN(Cc2ccc(Nc3ncc(F)c(-c4cc(F)c5nc(C)n(C(C)C)c5c4)n3)nc2)CC1"
  Result: 106.3
- Compound: "CN(C)C(=O)c1cc2cnc(Nc3ccc(N4CCNCC4)cn3)nc2n1C1CCCC1"
  Result: 107.4
- Compound: "C[C@]12CC[C@H](O)CC1=CC[C@@H]1[C@@H]2CC[C@]2(C)C(c3cccnc3)=CC[C@@H]12"
  Result: 106.4
- Compound: "COc1cc2nccc(Oc3ccc(NC(=O)NC4CC4)c(Cl)c3)c2cc1C(N)=O"
  Result: 107.3
- Compound: "CCOc1cc2ncc(C#N)c(Nc3ccc(OCc4ccccn4)c(Cl)c3)c2cc1NC(=O)/C=C/CN(C)C"
  Result: 10.0
- Compound: "Cc1nc(Nc2ncc(C(=O)Nc3c(C)cccc3Cl)s2)cc(N2CCN(CCO)CC2)n1"
  Result: 102.3
- Compound: "CCCS(=O)(=O)Nc1ccc(F)c(C(=O)c2c[nH]c3ncc(-c4ccc(Cl)cc4)cc23)c1F"
  Result: 97.8
- Compound: "C#Cc1cccc(Nc2ncnc3cc(OCCOC)c(OCCOC)cc23)c1"
  Result: 111.0

Prompt: Look up Long-term stability, 6 weeks, 4°C, without daylight Accuracy [%]: `Cc1cc(Nc2ncc(Cl)c(Nc3ccccc3S(=O)(=O)C(C)C)n2)c(OC(C)C)cc1C1CCNCC1`
Response: 104.9

Prompt: Bench note: what Long-term stability, 6 weeks, 4°C, without daylight Accuracy [%] did `CS(=O)(=O)CCNCc1ccc(-c2ccc3ncnc(Nc4ccc(OCc5cccc(F)c5)c(Cl)c4)c3c2)o1` show?
Response: 101.1

Prompt: Return reported Long-term stability, 6 weeks, 4°C, without daylight Accuracy [%]; argument: `Cc1ccc(Nc2nccc(N(C)c3ccc4c(C)n(C)nc4c3)n2)cc1S(N)(=O)=O`
Response: 109.7

Prompt: Could you share which Long-term stability, 6 weeks, 4°C, without daylight Accuracy [%] value was measured for `COc1cc(N2CCC(N3CCN(C)CC3)CC2)ccc1Nc1ncc(Cl)c(Nc2ccccc2P(C)(C)=O)n1` ?
Response: 104.7

Prompt: Item under review: Nc1cccc2c1CN(C1CCC(=O)NC1=O)C2=O (stereo not shown) [Lenalidomide] . Reported Long-term stability, 6 weeks, 4°C, without daylight Accuracy [%]?
Response: 19.7

Prompt: Could you share which Long-term stability, 6 weeks, 4°C, without daylight Accuracy [%] value was measured for `O=c1[nH]c(=O)n([C@H]2C[C@H](O)[C@@H](CO)O2)cc1C(F)(F)F` ?
Response: 59.0

Prompt: Consider the compound shown here: `CO[C@@H]1[C@H](N(C)C(=O)c2ccccc2)C[C@H]2O[C@]1(C)n1c3ccccc3c3c4c(c5c6ccccc6n2c5c31)C(=O)NC4` What is its recorded Long-term stability, 6 weeks, 4°C, without daylight Accuracy [%]?
Response: 103.5

Prompt: Would you mind telling me what Long-term stability, 6 weeks, 4°C, without daylight Accuracy [%] value was observed for `Cc1ccc(NC(=O)c2ccc(CN3CCN(C)CC3)cc2)cc1Nc1nccc(-c2cccnc2)n1` ?
Response: 95.4
